B1: ACBD3 (parent)
chain: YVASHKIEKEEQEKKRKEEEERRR

Variants of: B1
Test: protein stability index of a GFP-peptide fusion (GPS, HEK-293T) (PSI 1-6); higher = more stable;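 note: lentivirally expressed fusions sorted by FACS into six bins by GFP to DsRed ratio, PSI derived from sequencing read proportions per bin multiplied by bin number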
Settings: c terminus: a fixed tail appended
Quantity Measured: protein stability index
Give the figure only, with no unit attached.

>  <Change>
H5F

>  <protein stability index>
2.24

$$$$
>  <Change>
I7F

>  <protein stability index>
2.53

$$$$
>  <Change>
K6L

>  <protein stability index>
2.66

$$$$
>  <Change>
E18H

>  <protein stability index>
1.6

$$$$
>  <Change>
K9N

>  <protein stability index>
3.19

$$$$

Short answer for K15V : protein stability index was 2.74

GET /value?item= R16V &field=protein stability index returns 2.24

The variant listed as R16K has a reported protein stability index of 2.92

// protein stability index value for K17F : 2.32

Query Q12G yields protein stability index of 2.88

R24H yielded protein stability index of 3.01

The recorded protein stability index for K9S is 2.78

The variant listed as E18L shows protein stability index equal to 2.16

Lab note: measured protein stability index of E18Q was 2.43

In plain terms, V2M has a documented protein stability index of 5.36

For reference, reported protein stability index for K6N stands at 2.7

protein stability index measured on K9W = 1.86

The measurements presented in this section are drawn from the supplement of paper PMC10567573.
